assayed_system: recombinant human GST-Syk (Homo sapiens (Human), UniProt P43405)
measurement_notes: Homogeneous Time-Resolved Fluorescence (HTRF) Assay for the Recombinant Human Syk Enzyme
Assay type: biochemical
test_settings: recombinant human GST-Syk 5 pM, ATP 25 μM; read-out: rhSyk Activity (IC50)
pIC50: −log10 of the molar value.
property_measured: pIC50

Recorded pIC50, per entry:
compound	pIC50
Cc1cc(Nc2nccc(C(F)(F)F)n2)cc(-c2cnc(C(O)C3CCC(O)CC3(C)C)s2)c1 (stereo not shown)	≥ 7.00
Cc1cc(Nc2nccc(C)n2)cc(-c2cnc(C[C@H]3CC[C@H](C(=O)O)CC3)s2)c1 (single isomer, unassigned) [Example 13 (trans, slower eluting isomer)]	≥ 7.00
Cc1cc(Nc2nccc(C)n2)cc(-c2cnc(C(C)(O)C3CCC(C(=O)O)CC3)s2)c1 (stereo not shown)	≥ 7.00
Cc1cc(Nc2nccc(C(F)(F)F)n2)cc(-c2cnc(C(F)C3CCC(C(=O)O)CC3)s2)c1 (stereo not shown)	≥ 7.00
CCCCC(=O)OC1CCC(C(C)(O)c2ncc(-c3cc(C)cc(Nc4ncc(F)c(OC)n4)c3)s2)CC1 (stereo not shown)	5.00 to 6.00

Can you share its pIC50? I mean this compound: Cc1cc(Nc2nccc(C(F)(F)F)n2)cc(-c2cnc(C(=O)C3CCC4(CC3)OCCO4)s2)c1 6.00 to 7.00

Can you share its pIC50? I mean this compound: Cc1cc(Nc2nccc(C)n2)cc(-c2cnc(C[C@H]3CC[C@@H](C(=O)O)CC3)s2)c1 (single isomer, unassigned) [Example 13 (cis, faster eluting isomer)] ≥ 7.00

Can you share its pIC50? I mean this compound: Cc1cc(Nc2nccc(C)n2)cc(-c2cnc(C(C)(O)C3CCC(NOC(=O)Cc4ccccc4)CC3)s2)c1 (stereo not shown) 6.00 to 7.00

Can you share its pIC50? I mean this compound: C[C@@](O)(c1ncc(-c2cc(F)cc(Nc3nccc(C(F)(F)F)n3)c2)s1)[C@H]1CC[C@H](C(=O)O)CC1 (single isomer, unassigned) ≥ 7.00

Can you share its pIC50? I mean this compound: CCCCOC(=O)[C@H]1CC[C@H](C(C)(O)c2ncc(-c3cc(C)cc(Nc4nccc(C(F)F)n4)c3)s2)CC1 (single isomer, unassigned) 6.00 to 7.00

Can you share its pIC50? I mean this compound: Cc1cc(Nc2nccc(C)n2)cc(-c2cnc(C[C@]3(O)CC[C@H](C(=O)O)CC3)s2)c1 [5 (trans isomer)] ≥ 7.00

Can you share its pIC50? I mean this compound: CC(O)(c1ncc(-c2cc(Nc3nccc(C(F)(F)F)n3)cc(C3CC3)c2)s1)[C@H]1CC[C@H](C(=O)O)CC1 (single isomer, unassigned) ≥ 7.00

Can you share its pIC50? I mean this compound: Cc1cc(Nc2nccc(C(F)(F)F)n2)cc(-c2cnc(C(O)[C@H]3CC[C@H](C(N)=O)CC3)s2)c1 [Example 7 (trans isomer)] ≥ 7.00

Can you share its pIC50? I mean this compound: Cc1cc(Nc2nccc(C(F)(F)F)n2)cc(-c2cnc([C@@](O)(CF)[C@H]3CC[C@H](C(=O)O)CC3)s2)c1 ≥ 7.00

Can you share its pIC50? I mean this compound: Cc1cc(Nc2nccc(C(F)(F)F)n2)cc(-c2cnc(C(C)(O)C3CCC(C(=O)O)C3)s2)c1 (stereo not shown) [Example 3-4] ≥ 7.00
